Taken from a melting point compilation (Tetko et al.; mined from patent text by program, amines drawn as free bases though some values may be those of a salt).

Metric name: melting point

{"Compound": "COC(=O)c1ccc(C(O)c2cnn3c(N(C)c4ccccc4)ncnc23)cc1 (stereo unspecified)", "melting point": "68 °C"}
{"Compound": "Oc1cc(OCc2ccccc2)cc(OCc2ccccc2)c1C[C@H](O)[C@@H](O)c1ccccc1", "melting point": "121 to 123 °C"}
{"Compound": "N#Cc1n[nH]c2ccccc12", "melting point": "138 to 140 °C"}
{"Compound": "CCCn1c([N+](=O)[O-])cnc1-c1cnc(N)s1", "melting point": "234 to 236 °C"}
{"Compound": "NC(=O)CSC(=O)c1ccco1", "melting point": "126 to 128 °C"}
{"Compound": "COc1ccc2c(c1)CCN(C#N)C2c1cc(OC)c(OC)c(OC)c1 (single isomer, unassigned; (-))", "melting point": "132 to 134 °C"}
{"Compound": "Cn1cc(C2OC(=O)NC2=O)c2ccccc21 (stereo unspecified)", "melting point": "152 to 154 °C"}
{"Compound": "COc1cc(C=CC(=O)OC2C(O)C=C(C)C(=O)CC2(C)C)ccc1O (stereo unspecified)", "melting point": "125 to 127 °C"}
{"Compound": "COCOc1cc(Cl)c(Br)cc1C(=O)c1ncccc1OCOC", "melting point": "70 to 72 °C"}
{"Compound": "Cc1cc(-c2[nH]c3ccc(OCc4ccccc4)cc3c2C)cc(C)c1O", "melting point": "162 °C"}

// melting point value for COC(=O)c1ccc2c(c1)C(=O)C(C)C(c1ccccc1)=N2 (stereo unspecified) : > 300 °C

// melting point value for CC(=O)N1CCc2c([nH]c3ccc(Cl)cc23)C1CCCN1CCN(C)CC1 (stereo unspecified) : 59 to 61 °C

// melting point value for O=C1c2ccccc2C(OCCc2ccccn2)N1c1ccc2ccc(Cl)nc2n1 (stereo unspecified) : 142 °C

// melting point value for CS(=O)(=O)Nc1ccc(C#Cc2cnn3c(C(F)(F)F)cc(-c4ccc(C(F)(F)F)cc4)nc23)cn1 : 261 to 263 °C

// melting point value for COc1cc(-c2cc(C(F)(F)F)nn2-c2ccc(S(C)(=O)=O)cc2)ccc1-c1ccco1 : 138 to 140 °C

// melting point value for CCCCC(CC)Cn1c2ccc(Br)cc2c2cc(Br)ccc21 (stereo unspecified) : 62.4 to 63.6 °C

// melting point value for CN1CCN(Cc2ccccc2Cl)C(C(=O)NCCCl)C1 (stereo unspecified) : 74 to 75 °C

// melting point value for COC1CCCC(C2NC(=O)C2C(C)O[Si](C)(C)C(C)(C)C)C1O (stereo unspecified) : 146 to 148 °C

###

melting point listing for selected molecules.

Check out these entries, answers already filled in.
{"Smiles structure": "CCOC(=O)O[C@H](CCCc1ccc(OCc2nc(-c3ccccc3)sc2C)cc1)C(N)=O", "melting point": "130 to 131 °C"}
{"Smiles structure": "CCSc1ccc(SCC)c(C#N)n1", "melting point": "63 to 64 °C"}
{"Smiles structure": "Cc1[nH]c(C(=O)N2CCCC2)c(C)c1-c1nc2ccc(C(=O)c3ccccc3)cc2[nH]1", "melting point": "155 to 157 °C"}
{"Smiles structure": "CCn1nc2c(N)nc3cc(OS(=O)(=O)C(F)(F)F)ccc3c2c1CCc1ccccc1", "melting point": "178 to 179 °C"}

Let us move to another entry and its melting point.
// melting point value for COc1nc(C(=O)O)c(C(=O)NC(C)(C)C)s1 : 105 to 110 °C

###

melting point listing for selected molecules.

{"Molecule": "CCN1CCCC1CNC(=O)c1c(O)c(Cl)cc(Cl)c1OC (single isomer, unassigned; (-))", "melting point": "48 to 49 °C"}

// melting point value for COC(=O)C1=CC=Nc2ccccc2C1 : 168 to 173 °C

// melting point value for CC1(C)CCC2=C(C1=O)C(c1ccc(F)c(Br)c1)C1=C(CCS1)N2 (centres undefined) : > 270 °C

// melting point value for CC(=O)Oc1cccc(Br)c1 : 33 to 40 °C

// melting point value for CCOC(=O)c1ccc(COc2cccc3oc(C)cc23)cc1 : 59 to 61 °C

// melting point value for O=C(O)C1CCc2c(c3cc(F)ccc3n2C(=O)c2ccc(F)cc2)C1 (centres undefined) : 195 to 196 °C

// melting point value for CC(C)(C)c1cc(CCc2ccccc2NC(=O)NCCCC2CCCCC2)cc(C(C)(C)C)c1O : 166 °C

// melting point value for CCOC(=O)C=Cc1ccc(CCNS(=O)(=O)c2ccc(Cl)cc2)cc1 : 97 to 98 °C

// melting point value for CC(C)C(NC(=O)N(C)Cc1ccccn1)C(=O)N(C(=O)C(NC(=O)N(C)Cc1nccs1)C(C)C)C(Cc1ccccc1)CC(O)CCc1ccccc1 (centres undefined) : 156 to 158 °C

###

Metric name: melting point

// melting point value for CCC(Cc1ccccc1-c1ccccc1)C(=O)O (centres undefined) : 91.2 to 94 °C

// melting point value for c1ccc(C2CNc3c4c(nc5cccc(c35)O2)CCCC4)cc1 (centres undefined) : 194 to 195 °C

// melting point value for COc1ccc2[nH]c(C(C)C)c(C=O)c2c1 : 181 to 183 °C

// melting point value for COc1cc(C(O)CN2CCC(O)(c3ccccc3)CC2)on1 (centres undefined) : 166 to 168 °C

// melting point value for CC1(C)COC(c2ccccc2C2Oc3cccc(F)c3C(=O)C2=Cc2ccccc2)=N1 (centres undefined) : 110 to 112 °C

###

Metric name: melting point

{"Compound": "CCOC(=O)CC(=O)c1ccc(Cl)c(C)c1", "Result": "50 to 51 °C"}
{"Compound": "CCCCc1nc2c(c(=O)[nH]1)CN(C(=O)C(C)(C)C)CC2", "Result": "167 to 172 °C"}
{"Compound": "Oc1ccc2nc(SCCC(F)C(F)(F)Br)oc2c1 (centres undefined)", "Result": "64.6 to 67.6 °C"}
{"Compound": "CCCc1c(OCCOCCOCCOc2ccc3ccc(OCC(=O)O)cc3c2C(C)=O)ccc(C(C)=O)c1O", "Result": "110 to 111 °C"}
{"Compound": "CCCCCCCCCCCCCCCCCCNS(=O)(=O)c1cccc(C(F)(F)F)c1", "Result": "83 to 85 °C"}
{"Compound": "Cc1cc(-c2ccc(Cl)cc2)cn2c(-c3nc(-c4ccc(S(N)(=O)=O)s4)no3)cnc12", "Result": "271 °C"}
{"Compound": "CC(C)c1cccc(C(C)C)c1NC(=O)CNC(c1ccccc1)c1ccc(O)cc1 (centres undefined)", "Result": "190 to 192 °C"}
{"Compound": "COC(=O)c1ccccc1C1NC(=S)C(C)(C(C)C)N1 (centres undefined)", "Result": "115 to 121 °C"}
{"Compound": "CCCCC[C@H]1CC[C@H](CCc2ccc(O)c(C#N)c2C#N)CC1", "Result": "100 to 102 °C"}
{"Compound": "Cc1ccccc1C=C(C#N)C#N", "Result": "105 to 106 °C"}

// melting point value for C=Cc1ccc(OCc2ccccc2)cc1 : 68 to 69 °C

// melting point value for N#Cc1ccc(C2C(=O)N(Cc3ccc(F)cc3)Cc3cncn32)cc1 (centres undefined) : 132 to 135 °C

// melting point value for C=CCOC(=O)CC(=O)CCN1C(=O)c2ccccc2C1=O : 53 to 55 °C

// melting point value for CC(CCC(=O)C(C)(C)O)C1CCC2C3=CC=C4CC(O)CCC4(C)C3CCC21C (centres undefined) : 150 to 152 °C

// melting point value for COC(=O)c1cc(-c2nc(CCl)c(C)o2)ccc1OS(C)(=O)=O : 160 to 161 °C

// melting point value for CC(=O)Nc1ccc(I)cc1C : 182 to 183 °C

// melting point value for CCC1c2ccc(F)n2-c2ccc(F)cc2N1S(=O)(=O)c1ccc(O)cc1 (centres undefined) : 169 to 171 °C

// melting point value for CC1=C(C(=O)OCCN(C)Cc2ccccc2)C(c2cccc3c(=O)c(C)c(-c4ccccc4)oc23)C(C(=O)OC(C)C)=C(C)N1 (centres undefined) : 170 to 172 °C

// melting point value for Cc1oc(-c2ccc(Cl)cc2)nc1CO : 130 to 131 °C

// melting point value for C=CCSC(=S)c1cc(C(C)(C)C)c(O)c(C(C)(C)C)c1 : 93 to 95 °C

// melting point value for CCn1cc(CO)c(OCc2ccc(OCc3nc(-c4ccco4)oc3C)c(OC)c2)n1 : 117 to 118 °C

// melting point value for O=C(O)CCC(CCCCNS(=O)(=O)c1ccc(Cl)cc1)CCOc1cccnc1 (centres undefined) : 86 to 88 °C

###

melting point listing for selected compounds.

{"Compound": "CCc1cc(-c2ccc(-c3ccnn3C)cc2)ccc1OC", "Result": "97 to 100 °C"}

// melting point value for COc1ccc(-c2c(C(N)=O)n(C)c(=O)c3ncccc23)cc1 : > 310 °C

// melting point value for Cc1oc(-c2ccccc2)nc1CCOc1ccc(CC(C)(C)C(=O)NS(C)(=O)=O)cc1 : 112 to 113 °C

// melting point value for CCCc1cc(=O)oc2c(C(=O)CC)c(O)cc(O)c12 : 244 to 246 °C

// melting point value for Fc1ccc(-c2cc(C(S)(C(F)(F)F)C(F)(F)F)[nH]c2-c2ccc(F)cc2)cc1 : 114 to 115 °C

// melting point value for CCOC(=O)c1c(N=Cc2ccc(-c3cccs3)s2)sc(N=Cc2ccc(-c3cccs3)s2)c1C(=O)OCC : 130 to 132 °C

// melting point value for COC(=O)Cc1cn(-c2ccccc2)nc1OCc1ccccc1 : 74 to 75 °C

// melting point value for CCCCCc1ccc(CC(=O)c2ccc(O)cc2)cc1 : 112 °C

// melting point value for CC(C)Cn1c(=O)n(C)c(=O)c2c(SCCC(C)O)c(Cc3cccc4ccccc34)sc21 (stereo not given) : 162 to 163 °C

// melting point value for CCCCC(=O)Nc1c(N)ccnc1Cl : 163 °C
